Assay: Quinone reductase assay with menadione, cytochrome c as terminal electron acceptor
Type: biochemical
Conditions: Table 6

# molecule, Quinone reductase
rows = [
    ("C. jejuni NfnB: nitroreductase from Campylobacter jejuni, SEQ ID NO: 23 (protein, listed as Campylobacter jejuni) MKKELEIFSTRYSCRNFKNEKLKKEDLNSILEIARLSPSSLGLEPWKFIVVQDEKRKEELSKICNQQKHVKDCAALIIIISRLDFLDYFEEKLRKRDMSETEMQKRLDTYMPFLKSLNQEQKISYAREQAHIALASILYSANALNIASCTIGGFDKEKLDSYLSLDIQKERSSLVVALGYCNDKKNPQKNRFSFDEVVKFI", "Yes"),
    ("YdgI (Bacillus subtilis subsp. subtilis str. 168) (protein, made in house; host or cells: E. coli (pMTL1015; HMS174)) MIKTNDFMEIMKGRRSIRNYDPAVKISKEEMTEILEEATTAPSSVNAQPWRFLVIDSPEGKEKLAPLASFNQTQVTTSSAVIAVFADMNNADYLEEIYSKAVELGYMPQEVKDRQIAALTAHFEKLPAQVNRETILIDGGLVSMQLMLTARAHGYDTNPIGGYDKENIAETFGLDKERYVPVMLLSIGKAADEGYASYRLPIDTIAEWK", "Yes"),
    ("P. gingivalis YwrO: nitroreductase from Porphyromonas gingivalis, SEQ ID NO: 25 (protein, listed as Porphyromonas gingivalis) MKKTLVIVVHPDLTKSVINKAWAKAIEGAATIHHLYEQYPNGQIDLAHEQALLEAHDRIVFQFPLYWYAAPYLLKKWMDEVFTEGWAYGAGGDKMEGKEICAAVSCGSPKSAFAEGAQQCHTLRSYLNVFDGIAAFLRARFTGYHACYDSYNPRLPEMLPANCEAYLRFIKGE", "No"),
    ("YodC: nitroreductase from B. subtilis, SEQ ID NO: 12 (coded for by SEQ ID NO: 11) (protein, listed as Bacillus subtilis) MTNTLDVLKARASVKEYDTNAPISKEELTELLDLATKAPSAWNLQHWHFTVFHSDESKAELLPVAYNQKQIVESSAVVAILGDLKANENGEEVYAELASQGYITDEIKQTLLGQINGAYQSEQFARDSAFLNASLAAMQLMIAAKAKGYDTCAIGGFNKEQFQKQFDISERYVPVMLISIGKAVKPAHQSNRLPLSKVSTWL", "Yes"),
    ("H. influenzae NfnB: nitroreductase from H. influenzae, SEQ ID NO: 17 (protein, listed as Haemophilus influenzae) MTQLTREQVLELFHQRSSTRYYDPTKKISDEDFECILECGRLSPSSVGSEPWKFLVIQNKTLREKMKPFSWGMINQLDNCSHLVVILAKKNARYDSPFFVDVMARKGLNAEQQQAALTKYKALQEEDMKLLENDRTLFDWCSKQTYIALANMLTGASALGIDSCPIEGFHYDKMNECLAEEGLFDPQEYAVSVAATFGYRSRDIAKKSRKGLDEVVKWVG", "Yes"),
]
